Reference source for all entries: ChEMBL document CHEMBL1132590

system tested: Acetylcholinesterase (Homo sapiens)
Sequence (P22303 whole entry): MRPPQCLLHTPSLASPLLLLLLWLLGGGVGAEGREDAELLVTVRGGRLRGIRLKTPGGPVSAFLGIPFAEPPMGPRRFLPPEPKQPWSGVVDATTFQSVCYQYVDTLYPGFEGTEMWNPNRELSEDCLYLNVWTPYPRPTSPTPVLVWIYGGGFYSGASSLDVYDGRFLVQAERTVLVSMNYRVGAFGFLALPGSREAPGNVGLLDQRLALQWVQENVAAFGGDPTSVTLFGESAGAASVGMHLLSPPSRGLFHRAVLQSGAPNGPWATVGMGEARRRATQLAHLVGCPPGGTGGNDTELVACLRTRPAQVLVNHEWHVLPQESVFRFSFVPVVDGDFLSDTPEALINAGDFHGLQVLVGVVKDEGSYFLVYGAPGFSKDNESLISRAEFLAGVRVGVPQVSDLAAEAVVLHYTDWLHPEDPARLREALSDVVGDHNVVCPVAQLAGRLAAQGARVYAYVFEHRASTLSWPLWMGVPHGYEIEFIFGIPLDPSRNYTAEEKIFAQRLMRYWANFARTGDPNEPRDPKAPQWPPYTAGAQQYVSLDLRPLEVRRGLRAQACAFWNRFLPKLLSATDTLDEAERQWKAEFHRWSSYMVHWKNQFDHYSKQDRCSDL
pIC50: −log10 of the molar value.
pIC50 values for the molecules below.
parameter: pIC50

mol=c1ccc(CN2CCC(CCNc3ccc(-c4ccccc4)nn3)CC2)cc1 parameter=pIC50 observed=6.85
mol=CN(CCCCCNc1ccc(-c2ccccc2)nn1)Cc1ccccc1 parameter=pIC50 observed=6.03
mol=c1ccc(-c2ccc(NCCCCCN3CCc4ccccc4C3)nn2)cc1 parameter=pIC50 observed=4.33

###

system tested: Acetylcholinesterase (Rattus norvegicus, UniProt P37136)
Sequence (P37136 whole entry): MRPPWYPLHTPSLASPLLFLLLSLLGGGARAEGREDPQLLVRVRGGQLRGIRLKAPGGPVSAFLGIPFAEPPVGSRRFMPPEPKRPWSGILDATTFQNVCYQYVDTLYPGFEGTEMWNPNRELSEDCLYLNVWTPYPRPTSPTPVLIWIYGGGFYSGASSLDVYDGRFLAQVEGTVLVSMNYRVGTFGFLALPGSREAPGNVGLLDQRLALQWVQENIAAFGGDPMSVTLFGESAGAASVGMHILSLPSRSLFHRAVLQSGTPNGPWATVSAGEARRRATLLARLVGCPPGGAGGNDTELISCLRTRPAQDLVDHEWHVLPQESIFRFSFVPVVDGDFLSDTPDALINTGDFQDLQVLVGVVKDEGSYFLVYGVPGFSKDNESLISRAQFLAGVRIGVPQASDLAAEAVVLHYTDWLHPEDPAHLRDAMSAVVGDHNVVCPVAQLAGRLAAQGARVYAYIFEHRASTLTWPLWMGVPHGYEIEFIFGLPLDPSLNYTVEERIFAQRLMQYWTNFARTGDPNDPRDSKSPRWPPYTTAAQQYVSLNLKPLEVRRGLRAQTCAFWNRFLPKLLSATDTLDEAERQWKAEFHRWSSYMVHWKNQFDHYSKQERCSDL
pIC50: −log10 of the molar value.
pIC50 values for the molecules below.
parameter: pIC50

mol=N#Cc1cc(-c2ccccc2)nnc1NCCN1CCOCC1 parameter=pIC50 reading_qualifier=< observed=4.00
mol=c1ccc(-c2ccc(NCCN3CCCCC3)nn2)cc1 parameter=pIC50 reading_qualifier== observed=4.89
mol=c1ccc(C2=NNC(NCCN3CCCCC3)=NC2)cc1 parameter=pIC50 reading_qualifier== observed=4.33
mol=Cc1cc(-c2ccccc2)nnc1NCCN1CCCCC1 parameter=pIC50 reading_qualifier== observed=5.27
mol=Nc1cc(-c2ccccc2)nnc1NCCN1CCOCC1 parameter=pIC50 reading_qualifier== observed=3.57
mol=c1ccc(-c2ccc(NCCN3CCCCC3)nc2)cc1 parameter=pIC50 reading_qualifier== observed=4.15

###

system tested: Acetylcholinesterase (Torpedo californica, UniProt P04058)
Sequence (P04058 whole entry): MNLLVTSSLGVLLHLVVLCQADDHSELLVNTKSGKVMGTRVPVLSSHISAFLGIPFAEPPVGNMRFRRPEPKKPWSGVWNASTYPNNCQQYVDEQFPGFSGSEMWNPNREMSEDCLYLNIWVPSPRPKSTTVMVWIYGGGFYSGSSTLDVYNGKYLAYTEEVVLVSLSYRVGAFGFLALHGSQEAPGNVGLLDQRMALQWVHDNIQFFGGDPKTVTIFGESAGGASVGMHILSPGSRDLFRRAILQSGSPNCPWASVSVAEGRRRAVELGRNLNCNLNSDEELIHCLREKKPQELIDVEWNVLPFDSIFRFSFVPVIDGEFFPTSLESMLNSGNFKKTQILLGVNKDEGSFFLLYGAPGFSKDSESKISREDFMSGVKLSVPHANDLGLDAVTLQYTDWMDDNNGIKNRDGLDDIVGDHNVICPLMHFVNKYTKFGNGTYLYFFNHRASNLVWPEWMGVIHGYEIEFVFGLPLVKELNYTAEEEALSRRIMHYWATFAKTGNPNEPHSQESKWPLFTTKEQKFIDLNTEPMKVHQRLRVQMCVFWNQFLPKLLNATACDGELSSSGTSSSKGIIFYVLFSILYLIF
Class assignment keyed on IC50, ranges class A (below 10 µM), class B (10 µM to below 60 µM), class C (60 µM or more)

compound=c1ccc(-c2ccc(NCCN3CCc4ccccc4C3)nn2)cc1 label="class C"
compound=CN(CCCCNc1ccc(-c2ccccc2)nn1)Cc1ccccc1 label="class B"
compound=c1ccc(-c2ccc(NCCN3CCCCC3)nn2)cc1 label="class C"
compound=c1ccc(CN2CCC(CCNc3ccc(-c4ccccc4)nn3)CC2)cc1 label="class A"
compound="CCN1CCCC1CNc1ccc(-c2ccccc2)nn1 (stereo unspecified)" label="class C"
compound=c1ccc(-c2ccc(NCCCN3CCOCC3)nn2)cc1 label="class C"
compound=CN(CCCNc1ccc(-c2ccccc2)nn1)Cc1ccccc1 label="class B"
compound=c1ccc(-c2ccc(NCCCN3CCc4ccccc4C3)nn2)cc1 label="class B"
compound=c1ccc(-c2ccc(NCCCCN3CCc4ccccc4C3)nn2)cc1 label="class B"
compound=CN(CCCCCNc1ccc(-c2ccccc2)nn1)Cc1ccccc1 label="class A"
